Where these numbers come from: the NIST ThermoML archive (doi:10.1016/j.jct.2011.11.021)

Experiment: activity coefficient (dimensionless); of the first substance listed, at infinite dilution; xn = mol fraction of the nth substance listed
Settings: 318.15 K; Liquid; Chromatography; x1 = 0
Quick list: activity coefficient per entry.
Note: the reply should be a number with no unit written.

C=CCCCCCC [oct-1-ene] + COCC[N+]1(C)CCOCC1.O=S(=O)([N-]S(=O)(=O)C(F)(F)F)C(F)(F)F; 38.6
CC1CCCCC1 [methylcyclohexane] + COCC[N+]1(C)CCOCC1.O=S(=O)([N-]S(=O)(=O)C(F)(F)F)C(F)(F)F; 27.6
CCCO [propan-1-ol] + COCC[N+]1(C)CCOCC1.O=S(=O)([N-]S(=O)(=O)C(F)(F)F)C(F)(F)F; 2.39

### Prompt Form field: reported activity coefficient of C=CCCC [1-pentene] + COCC[N+]1(C)CCOCC1.O=S(=O)([N-]S(=O)(=O)C(F)(F)F)C(F)(F)F
### Response 11

====

Experiment: activity coefficient (dimensionless); of the first substance listed, at infinite dilution; xn = mol fraction of the nth substance listed
Conditions: 348.15 K; Liquid; Chromatography; x1 = 0
Quick list: activity coefficient per entry.
Note: the reply should be a number with no unit written.

CCCCCC [hexane] + COCC[N+]1(C)CCOCC1.O=S(=O)([N-]S(=O)(=O)C(F)(F)F)C(F)(F)F; 27.2

Proceed to the following item.
### Prompt Form field: reported activity coefficient of C=CCCCCC [1-heptene] + COCC[N+]1(C)CCOCC1.O=S(=O)([N-]S(=O)(=O)C(F)(F)F)C(F)(F)F
### Response 20.3

====

Assay: activity coefficient (dimensionless); of the first substance listed, at infinite dilution; xn = mol fraction of the nth substance listed
Details: 328.15 K; Liquid; Chromatography; x1 = 0
Property: activity coefficient
Note: the reply should be a number with no unit written.

// below: answered compounds
C1CCCCCC1 [cycloheptane] + COCC[N+]1(C)CCOCC1.O=S(=O)([N-]S(=O)(=O)C(F)(F)F)C(F)(F)F; 23.6
COC(C)=O [methyl ethanoate] + COCC[N+]1(C)CCOCC1.O=S(=O)([N-]S(=O)(=O)C(F)(F)F)C(F)(F)F; 0.7
C=Cc1ccccc1 [styrene] + COCC[N+]1(C)CCOCC1.O=S(=O)([N-]S(=O)(=O)C(F)(F)F)C(F)(F)F; 1.77

Proceed to the following item.
### Prompt Form field: reported activity coefficient of CCOC(C)(C)C [2-ethoxy-2-methylpropane] + COCC[N+]1(C)CCOCC1.O=S(=O)([N-]S(=O)(=O)C(F)(F)F)C(F)(F)F
### Response 9.21

====

Assay: activity coefficient (dimensionless); of the first substance listed, at infinite dilution; xn = mol fraction of the nth substance listed
Conditions: 338.15 K; Liquid; Chromatography; x1 = 0
Quick list: activity coefficient per entry.
Note: the reply should be a number with no unit written.

// below: answered molecules
CCCC(C)=O [pentan-2-one] + COCC[N+]1(C)CCOCC1.O=S(=O)([N-]S(=O)(=O)C(F)(F)F)C(F)(F)F; 0.9
c1ccccc1 [benzene] + COCC[N+]1(C)CCOCC1.O=S(=O)([N-]S(=O)(=O)C(F)(F)F)C(F)(F)F; 1.32
CCO [ethanol] + COCC[N+]1(C)CCOCC1.O=S(=O)([N-]S(=O)(=O)C(F)(F)F)C(F)(F)F; 1.49
C#CCCCCC [1-heptyne] + COCC[N+]1(C)CCOCC1.O=S(=O)([N-]S(=O)(=O)C(F)(F)F)C(F)(F)F; 7.09
CC(C)O [propan-2-ol] + COCC[N+]1(C)CCOCC1.O=S(=O)([N-]S(=O)(=O)C(F)(F)F)C(F)(F)F; 1.79
CO [methanol] + COCC[N+]1(C)CCOCC1.O=S(=O)([N-]S(=O)(=O)C(F)(F)F)C(F)(F)F; 1.1
C1CCCCCCC1 [cyclooctane] + COCC[N+]1(C)CCOCC1.O=S(=O)([N-]S(=O)(=O)C(F)(F)F)C(F)(F)F; 29.6
CCCCCCCC [octane] + COCC[N+]1(C)CCOCC1.O=S(=O)([N-]S(=O)(=O)C(F)(F)F)C(F)(F)F; 64.6

### Prompt Form field: reported activity coefficient of C=Cc1ccccc1 [styrene] + COCC[N+]1(C)CCOCC1.O=S(=O)([N-]S(=O)(=O)C(F)(F)F)C(F)(F)F
### Response 1.76

### Prompt Please do the same for CCCC=O [butanal] + COCC[N+]1(C)CCOCC1.O=S(=O)([N-]S(=O)(=O)C(F)(F)F)C(F)(F)F as well.
### Response 0.891

====

Assay: activity coefficient (dimensionless); of the first substance listed, at infinite dilution; xn = mol fraction of the nth substance listed
Conditions: 348.15 K; Liquid; Chromatography; x1 = 0
Property: activity coefficient
Note: the reply should be a number with no unit written.

// below: answered compounds
C=CCCCCCC [oct-1-ene] + COCC[N+]1(C)CCOCC1.O=S(=O)([N-]S(=O)(=O)C(F)(F)F)C(F)(F)F; 30.1
CCO [ethanol] + COCC[N+]1(C)CCOCC1.O=S(=O)([N-]S(=O)(=O)C(F)(F)F)C(F)(F)F; 1.36
CCC(=O)OC [methyl propanoate] + COCC[N+]1(C)CCOCC1.O=S(=O)([N-]S(=O)(=O)C(F)(F)F)C(F)(F)F; 0.998

### Prompt Form field: reported activity coefficient of CO [methanol] + COCC[N+]1(C)CCOCC1.O=S(=O)([N-]S(=O)(=O)C(F)(F)F)C(F)(F)F
### Response 1.02

### Prompt Please do the same for CCCCC [pentane] + COCC[N+]1(C)CCOCC1.O=S(=O)([N-]S(=O)(=O)C(F)(F)F)C(F)(F)F as well.
### Response 19

### Prompt Please do the same for C#CCCCCC [1-heptyne] + COCC[N+]1(C)CCOCC1.O=S(=O)([N-]S(=O)(=O)C(F)(F)F)C(F)(F)F as well.
### Response 6.94

### Prompt Please do the same for CCC(C)(C)OC [2-methoxy-2-methylbutane] + COCC[N+]1(C)CCOCC1.O=S(=O)([N-]S(=O)(=O)C(F)(F)F)C(F)(F)F as well.
### Response 5.37

### Prompt Please do the same for CCCOCCC [dipropyl ether] + COCC[N+]1(C)CCOCC1.O=S(=O)([N-]S(=O)(=O)C(F)(F)F)C(F)(F)F as well.
### Response 9.56

### Prompt Please do the same for C=CCCC [1-pentene] + COCC[N+]1(C)CCOCC1.O=S(=O)([N-]S(=O)(=O)C(F)(F)F)C(F)(F)F as well.
### Response 9.25

### Prompt Please do the same for Cc1cccc(C)c1 [1,3-dimethylbenzene] + COCC[N+]1(C)CCOCC1.O=S(=O)([N-]S(=O)(=O)C(F)(F)F)C(F)(F)F as well.
### Response 2.97

### Prompt Please do the same for C1CCCCCCC1 [cyclooctane] + COCC[N+]1(C)CCOCC1.O=S(=O)([N-]S(=O)(=O)C(F)(F)F)C(F)(F)F as well.
### Response 26.7

### Prompt Please do the same for CC(C)O [propan-2-ol] + COCC[N+]1(C)CCOCC1.O=S(=O)([N-]S(=O)(=O)C(F)(F)F)C(F)(F)F as well.
### Response 1.63

### Prompt Please do the same for C1CCCCCC1 [cycloheptane] + COCC[N+]1(C)CCOCC1.O=S(=O)([N-]S(=O)(=O)C(F)(F)F)C(F)(F)F as well.
### Response 19.7

### Prompt Please do the same for C1CCCC1 [cyclopentane] + COCC[N+]1(C)CCOCC1.O=S(=O)([N-]S(=O)(=O)C(F)(F)F)C(F)(F)F as well.
### Response 9.68

====

Quick list: activity coefficient per entry.
Assay: activity coefficient (dimensionless); of the first substance listed, at infinite dilution; xn = mol fraction of the nth substance listed
Settings: 318.15 K; Liquid; Chromatography; x1 = 0
Note: the reply should be a number with no unit written.

C1CCCCC1 [cyclohexane] + COCC[N+]1(C)CCOCC1.O=S(=O)([N-]S(=O)(=O)C(F)(F)F)C(F)(F)F; 18.8
CCCOCCC [dipropyl ether] + COCC[N+]1(C)CCOCC1.O=S(=O)([N-]S(=O)(=O)C(F)(F)F)C(F)(F)F; 10.7

### Prompt Form field: reported activity coefficient of c1ccncc1 [pyridine] + COCC[N+]1(C)CCOCC1.O=S(=O)([N-]S(=O)(=O)C(F)(F)F)C(F)(F)F
### Response 0.64

### Prompt Please do the same for C1CCCCCC1 [cycloheptane] + COCC[N+]1(C)CCOCC1.O=S(=O)([N-]S(=O)(=O)C(F)(F)F)C(F)(F)F as well.
### Response 26.2

### Prompt Please do the same for c1ccccc1 [benzene] + COCC[N+]1(C)CCOCC1.O=S(=O)([N-]S(=O)(=O)C(F)(F)F)C(F)(F)F as well.
### Response 1.33

### Prompt Please do the same for CCC(C)O (configuration not stated) [butan-2-ol] + COCC[N+]1(C)CCOCC1.O=S(=O)([N-]S(=O)(=O)C(F)(F)F)C(F)(F)F as well.
### Response 2.76

### Prompt Please do the same for C=CCCCC [hex-1-ene] + COCC[N+]1(C)CCOCC1.O=S(=O)([N-]S(=O)(=O)C(F)(F)F)C(F)(F)F as well.
### Response 16.5
